List of Ki tested on Sodium-dependent dopamine transporter (Rattus norvegicus).
Sequence (P23977 whole entry): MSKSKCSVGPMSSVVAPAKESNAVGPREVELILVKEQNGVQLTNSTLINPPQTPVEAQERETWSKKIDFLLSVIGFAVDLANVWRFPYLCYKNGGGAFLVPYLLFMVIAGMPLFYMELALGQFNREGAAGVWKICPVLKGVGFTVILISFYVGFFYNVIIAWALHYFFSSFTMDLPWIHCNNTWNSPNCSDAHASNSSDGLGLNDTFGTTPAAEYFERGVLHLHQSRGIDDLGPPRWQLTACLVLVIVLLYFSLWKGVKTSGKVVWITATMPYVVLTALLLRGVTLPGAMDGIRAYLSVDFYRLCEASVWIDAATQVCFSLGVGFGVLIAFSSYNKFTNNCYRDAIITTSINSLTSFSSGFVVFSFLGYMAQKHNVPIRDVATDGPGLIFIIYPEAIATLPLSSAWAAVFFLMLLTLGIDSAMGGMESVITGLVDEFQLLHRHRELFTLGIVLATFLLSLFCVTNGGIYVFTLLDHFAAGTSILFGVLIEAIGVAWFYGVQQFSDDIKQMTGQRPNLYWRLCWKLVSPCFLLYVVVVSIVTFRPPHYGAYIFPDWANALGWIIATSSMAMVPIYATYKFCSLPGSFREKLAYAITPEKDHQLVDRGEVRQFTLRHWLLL
Use nM as the unit, but write only the number.

• COC(=O)[C@H](c1cccc(Cl)c1)[C@@H]1CCCCN1 = 5.1
• COC(=O)[C@H](c1cccc(Cl)c1)[C@@H]1CCCCN1C = 160
• COC(=O)[C@H](c1ccc(F)cc1)[C@@H]1CCCCN1 = 35
• COC(=O)[C@H](c1ccc(N)cc1)[C@@H]1CCCCN1 = 34.5
• COC(=O)[C@H](c1ccc(C)cc1)[C@@H]1CCCCN1C = 140
• COC(=O)[C@H](c1ccc(Cl)c(Cl)c1)[C@@H]1CCCCN1 = 5.3
• COC(=O)[C@H](c1ccccc1)[C@@H]1CCCCN1C = 499
• CCCCN1CCCC[C@H]1[C@H](COC)c1ccccc1 = 17.8

Form field Ki for item COC(=O)[C@H](c1ccc(C)cc1)[C@@H]1CCCCN1 on Sodium-dependent dopamine transporter (Rattus norvegicus): 33

Form field Ki for item CCCCN1CCCC[C@H]1[C@H](CO)c1ccccc1 on Sodium-dependent dopamine transporter (Rattus norvegicus): 23.7
